target.or.test.system: Cannabinoid receptor 1 (Homo sapiens, UniProt P21554)
Sequence (P21554 whole entry): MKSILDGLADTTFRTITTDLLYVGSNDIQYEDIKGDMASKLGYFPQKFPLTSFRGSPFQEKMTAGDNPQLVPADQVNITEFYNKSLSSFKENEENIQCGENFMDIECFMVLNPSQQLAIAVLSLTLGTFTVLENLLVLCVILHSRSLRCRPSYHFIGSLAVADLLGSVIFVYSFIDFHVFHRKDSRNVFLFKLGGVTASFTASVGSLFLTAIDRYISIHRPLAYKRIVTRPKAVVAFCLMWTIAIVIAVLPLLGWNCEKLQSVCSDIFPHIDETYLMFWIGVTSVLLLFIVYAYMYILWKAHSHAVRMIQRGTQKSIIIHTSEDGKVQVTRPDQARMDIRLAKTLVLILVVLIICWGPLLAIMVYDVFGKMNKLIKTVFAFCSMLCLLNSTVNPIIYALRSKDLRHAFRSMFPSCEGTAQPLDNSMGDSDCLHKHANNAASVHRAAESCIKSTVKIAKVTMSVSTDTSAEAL
assay: Displacement of [3H]CP,55-940 from recombinant human CB1 receptor expressed in HEK293 EBNA cell membranes after 90 mins by microbeta scintillation counting method
cond: read-out: Ki
property.name: Ki (nM)
Numbers only, in nM.

Answered cases to consult:
- compound: "Cc1ccc(-c2cc(SNC3CC(C)CCC3C(C)C)nnc2-c2ccc(C)cc2)cc1 (centres undefined)"
  property.name: "Ki"
  measurement.unit: "nM"
  measured: 708
- compound: "Cc1ccc(-c2cc(SNCC3CCC4CC3C4(C)C)nnc2-c2ccc(C)cc2)cc1 (centres undefined)"
  property.name: "Ki"
  measurement.unit: "nM"
  measured: 1250
- compound: "Cc1ccc(-c2cc(SNC3CC4CCC3(C)C4(C)C)nnc2-c2ccc(C)cc2)cc1 (centres undefined)"
  property.name: "Ki"
  measurement.unit: "nM"
  measured: 44.6
- compound: "Cc1ccc(Cn2nc(-c3ccc(C)cc3)cc(S(=O)(=O)NC3CCCCCC3)c2=O)cc1"
  property.name: "Ki"
  measurement.unit: "nM"
  measured: 1190
- compound: "Cc1ccc(-c2cc(S(=O)(=O)NC3CCCCC3)nnc2-c2ccc(C)cc2)cc1"
  property.name: "Ki"
  measurement.unit: "nM"
  measured: 3600
- compound: "Cc1ccc(-c2cc(S(=O)(=O)NC3CCCC3)nnc2-c2ccc(C)cc2)cc1"
  property.name: "Ki"
  measurement.unit: "nM"
  measured: 1460
- compound: "Cc1ccc(-c2cc(S(=O)(=O)NC3CC4CCC3(C)C4(C)C)nnc2-c2ccc(C)cc2)cc1 (centres undefined)"
  property.name: "Ki"
  measurement.unit: "nM"
  measured: 1290
- compound: "Cc1ccc(-c2cc(SNC3CCCC3)nnc2-c2ccc(C)cc2)cc1"
  property.name: "Ki"
  measurement.unit: "nM"
  measured: 724

# evaluate next
Return value of Ki for input Cc1ccc(-c2cc(S(=O)(=O)NC3CC4CC(C3C)C4(C)C)nnc2-c2ccc(C)cc2)cc1 (centres undefined) , no commentary. 73.2

====

target.or.test.system: Cannabinoid receptor 1 (Homo sapiens)
assay: Displacement of [3H]CP,55-940 from recombinant human CB1 receptor expressed in HEK293 EBNA cell membranes after 90 mins by microbeta scintillation counting method
cond: read-out: Ki
property.name: pKi
Numbers only, as −log10 of the molar value.

Reference set, count: 3
- compound: "Cc1ccc(-c2cc(SNC3CCCCCC3)nnc2-c2ccc(C)cc2)cc1"
  measured: 6.22
- compound: "Cc1ccc(-c2cc(SNCC34CC5CC(CC(C5)C3)C4)nnc2-c2ccc(C)cc2)cc1"
  measured: 6.07
- compound: "Cc1ccc(-c2cc(SNC3C4(C)CCC(C4)C3(C)C)nnc2-c2ccc(C)cc2)cc1 (stereo not drawn)"
  measured: 6.61

Please state, for each entry, its recorded pKi.
1. Cc1ccc(-c2cc(S(=O)(=O)NC3CCCCCC3)nnc2-c2ccc(C)cc2)cc1
2. Cc1ccc(-c2cc(SNC3CC4CC(C3C)C4(C)C)nnc2-c2ccc(C)cc2)cc1 (stereo not drawn)

1. 6.10
2. 7.12

====

target.or.test.system: Cannabinoid receptor 1 (Homo sapiens, UniProt P21554)
assay: Antagonist activity at human CB1 receptor expressed in CHO cell membranes assessed as reduction in GTPgammaS binding after 30 mins by microbeta counting method
For each record, write down the corresponding pIC50.
One number for each entry, as −log10 of the molar value.

Quick request: pIC50 for each listed item, please.
1. Cc1ccc(-c2cc(S(=O)(=O)NC3CC4CC(C3C)C4(C)C)nnc2-c2ccc(C)cc2)cc1 (stereo not drawn)
2. Cc1ccc(-c2cc(SNC3CC4CCC3(C)C4(C)C)nnc2-c2ccc(C)cc2)cc1 (stereo not drawn)
3. Cc1ccc(-c2cc(SNC3CC4CC(C3C)C4(C)C)nnc2-c2ccc(C)cc2)cc1 (stereo not drawn)

[6.26, 6.60, 6.74]
